# system: 3',5'-cyclic-AMP phosphodiesterase 4B (Homo sapiens)
# method.notes: Inhibition of recombinant full length PDE4B (unknown origin) using FAM-cAMP as substrate at 1 uM preincubated with compound for compound for 15 mins followed by substrate addition and measured after 30 mins by Envision multilabel reader analysis relative to control
# experimental.conditions: time 45.0 min
quantity.kind: inhibition (%)
Give bare numbers, in %.

Please review the entries below; each comes with its answer.
>>> observed_value("O=C(Nc1nccs1)c1cccc2[nH]c(-c3ccc(OC(F)F)c(OCC4CC4)c3)nc12")
89.9
>>> observed_value("O=C(ON1C(=O)CCC1=O)c1ccc2[nH]c(-c3ccc(OC(F)F)c(OCC4CC4)c3)nc2c1")
62.2
>>> observed_value("O=C(Nc1ccncc1)c1cccc2[nH]c(-c3ccc(OC(F)F)c(OCC4CC4)c3)nc12")
65.6

Each molecule below has a reported value. Please supply its inhibition.
1. O=C(Nc1ccc2ncsc2c1)c1cccc2[nH]c(-c3ccc(OC(F)F)c(OC(F)F)c3)nc12
2. O=C(NCc1ncccn1)c1ccc2[nH]c(-c3ccc(OC(F)F)c(OCC4CC4)c3)nc2c1
3. O=C(NCc1c(F)cccc1F)c1cccc2[nH]c(-c3ccc(OC(F)F)c(OCC4CC4)c3)nc12
4. COc1ccc(-c2nc3cc(C(=O)NCc4ncccn4)ccc3[nH]2)cc1OCC1CC1
5. O=C(NCc1cccnc1)c1cccc2[nH]c(-c3ccc(OC(F)F)c(OCC4CC4)c3)nc12

70.2
62.3
94.4
42.5
91.1

What value of inhibition has been recorded for this entry: O=C(NCc1ccc(F)c(F)c1)c1cccc2[nH]c(-c3ccc(OC(F)F)c(OCC4CC4)c3)nc12
90.6

----------
# method.notes: Oral bioavailability in Sprague-Dawley rat at 10 mg/kg measured upto 24 hrs by LC-MS/MS analysis
# Format: ADME, organism-based
# experimental.conditions: in vivo
quantity.kind: bioavailability (%)
Give bare numbers, in %.

What value of bioavailability has been recorded for this entry: O=C(Nc1nccs1)c1cccc2[nH]c(-c3ccc(OC(F)F)c(OCC4CC4)c3)nc12
4.59

----------
# method.notes: AUC (0 to infinity) in Sprague-Dawley rat at 10 mg/kg, po measured upto 24 hrs by LC-MS/MS analysis
# Format: ADME, organism-based
# experimental.conditions: in vivo
quantity.kind: AUC(0-inf)
Mention the unit after the number when you answer.

What value of AUC(0-inf) has been recorded for this entry: O=C(Nc1nccs1)c1cccc2[nH]c(-c3ccc(OC(F)F)c(OCC4CC4)c3)nc12
2160 ng·h/mL

----------
# method.notes: Tmax in Sprague-Dawley rat at 10 mg/kg, po measured upto 24 hrs by LC-MS/MS analysis
# Format: ADME, organism-based
# experimental.conditions: in vivo
quantity.kind: Tmax (h)
Answers are plain numbers, in h.

What value of Tmax has been recorded for this entry: O=C(Nc1nccs1)c1cccc2[nH]c(-c3ccc(OC(F)F)c(OCC4CC4)c3)nc12
3

----------
# method.notes: Metabolic stability in dog liver microsomes assessed as half life incubated for 4 hrs in presence of NADPH by LC-MS analysis
# Type: ADME, Canis lupus familiaris, Microsome
quantity.kind: half-life (min)
Give bare numbers, in min.

What value of half-life has been recorded for this entry: O=C(Nc1nccs1)c1cccc2[nH]c(-c3ccc(OC(F)F)c(OCC4CC4)c3)nc12
43.2

----------
# method.notes: Apparent volume of distribution in Sprague-Dawley rat at 5 mg/kg, iv measured upto 24 hrs by LC-MS/MS analysis
# Assay type: ADME, organism-based
# experimental.conditions: in vivo, read-out: Vz
quantity.kind: Vd (L/kg)
Answers are plain numbers, in L/kg.

What value of Vd has been recorded for this entry: O=C(Nc1nccs1)c1cccc2[nH]c(-c3ccc(OC(F)F)c(OCC4CC4)c3)nc12
0.606

----------
# method.notes: Half life in Sprague-Dawley rat at 10 mg/kg, po measured upto 24 hrs by LC-MS/MS analysis
# Type: ADME, organism-based
# experimental.conditions: in vivo
quantity.kind: half-life (h)
Numbers only, in h.

What value of half-life has been recorded for this entry: O=C(Nc1nccs1)c1cccc2[nH]c(-c3ccc(OC(F)F)c(OCC4CC4)c3)nc12
3.75

----------
# system: UniProtKB Q07343
quantity.kind: IC50
Mention the unit after the number when you answer.

Tell me reported IC50 for O=C(Nc1nccs1)c1cccc2[nH]c(-c3ccc(OC(F)F)c(OCC4CC4)c3)nc12 , tested with UniProtKB Q07343.
48.8 nM

----------
# method.notes: AUC (0 to infinity) in Sprague-Dawley rat at 5 mg/kg, iv measured upto 24 hrs by LC-MS/MS analysis
# Format: ADME, organism-based
# experimental.conditions: in vivo
quantity.kind: AUC(0-inf)

What value of AUC(0-inf) has been recorded for this entry: O=C(Nc1nccs1)c1cccc2[nH]c(-c3ccc(OC(F)F)c(OCC4CC4)c3)nc12
23200 ng·h/mL

----------
# system: 3',5'-cyclic-AMP phosphodiesterase 4B (Homo sapiens, UniProt Q07343)
# Sequence (Q07343 whole entry): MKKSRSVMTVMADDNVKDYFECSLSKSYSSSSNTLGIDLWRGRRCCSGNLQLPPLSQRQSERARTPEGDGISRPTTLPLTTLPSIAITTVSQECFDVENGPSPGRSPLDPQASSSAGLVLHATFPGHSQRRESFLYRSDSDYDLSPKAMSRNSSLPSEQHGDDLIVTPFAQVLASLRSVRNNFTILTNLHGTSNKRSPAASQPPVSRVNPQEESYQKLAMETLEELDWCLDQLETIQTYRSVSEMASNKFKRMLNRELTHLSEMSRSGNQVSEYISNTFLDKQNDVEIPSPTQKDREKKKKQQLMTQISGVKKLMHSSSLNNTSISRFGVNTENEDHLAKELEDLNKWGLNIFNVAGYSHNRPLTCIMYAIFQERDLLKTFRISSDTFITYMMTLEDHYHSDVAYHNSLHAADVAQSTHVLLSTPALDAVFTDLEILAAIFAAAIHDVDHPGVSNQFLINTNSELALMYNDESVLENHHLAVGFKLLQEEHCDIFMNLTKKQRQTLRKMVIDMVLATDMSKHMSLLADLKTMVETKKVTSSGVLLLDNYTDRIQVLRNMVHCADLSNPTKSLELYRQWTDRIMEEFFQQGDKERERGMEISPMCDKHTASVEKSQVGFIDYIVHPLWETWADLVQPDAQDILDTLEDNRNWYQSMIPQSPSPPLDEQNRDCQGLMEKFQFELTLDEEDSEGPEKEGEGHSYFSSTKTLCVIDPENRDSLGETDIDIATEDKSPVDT
# method.notes: Inhibition of recombinant full length PDE4B (unknown origin) using FAM-cAMP as substrate at 1 uM preincubated with compound for compound for 15 mins followed by substrate addition and measured after 30 mins by Envision multilabel reader analysis relative to control
# experimental.conditions: time 45.0 min
Would you kindly list inhibition for each of these compounds?
One number for each entry, in %.

Each compound below has a reported value. Please supply its inhibition.
1. N#Cc1ccc(NNC(=O)c2ccc3[nH]c(-c4ccc(OC(F)F)c(OCC5CC5)c4)nc3c2)cc1
2. O=C(Nc1ccncc1)c1ccc2[nH]c(-c3ccc(OC(F)F)c(OCC4CC4)c3)nc2c1
3. O=S(=O)(c1ccccc1)n1cc(-c2ccc3[nH]c(-c4ccc(OC(F)F)c(OCC5CC5)c4)nc3c2)c2ccccc21

76.2
62.3
25.8

Each compound below has a reported value. Please supply its inhibition.
1. O=C(NCc1c(F)cc(F)cc1F)c1cccc2[nH]c(-c3ccc(OC(F)F)c(OCC4CC4)c3)nc12
2. Cn1ccc(NC(=O)c2cccc3[nH]c(-c4ccc(OC(F)F)c(OCC5CC5)c4)nc23)n1
3. O=C(Nc1cccnc1)c1cccc2[nH]c(-c3ccc(OC(F)F)c(OCC4CC4)c3)nc12
4. O=C(NCc1cnccn1)c1cccc2[nH]c(-c3ccc(OC(F)F)c(OCC4CC4)c3)nc12
5. O=C(NCc1ccccn1)c1cccc2[nH]c(-c3ccc(OC(F)F)c(OCC4CC4)c3)nc12
6. O=C(Nc1nccs1)c1cccc2[nH]c(-c3ccc(OC(F)F)c(OC(F)F)c3)nc12
7. COc1ccc(-c2nc3cc(C(=O)Nc4ccc5ncsc5c4)ccc3[nH]2)cc1OCC1CC1
8. O=C(NCc1ccc(F)cc1F)c1cccc2[nH]c(-c3ccc(OC(F)F)c(OCC4CC4)c3)nc12

[88.6, 94.1, 90.1, 93.3, 93.9, 68, 49.2, 94]

Each compound below has a reported value. Please supply its inhibition.
1. O=C(NCc1c(F)cc(F)cc1F)c1cccc2[nH]c(-c3ccc(OC(F)F)c(OC(F)F)c3)nc12
2. O=C(Nc1ccc2[nH]ccc2c1)c1cccc2[nH]c(-c3ccc(OC(F)F)c(OCC4CC4)c3)nc12
3. Cc1nc2ccc(NC(=O)c3cccc4[nH]c(-c5ccc(OC(F)F)c(OCC6CC6)c5)nc34)cc2s1

[73.3, 93.5, 56.8]
